# Test system: Escherichia coli TOP10
# assay summary: shrunken log2 fold change of peptide-encoding DNA abundance (4.5 h post-induction vs induction); higher = less antimicrobial activity (less host growth inhibition)
# condition notes: time post-induction: 4.5 h; library: site-saturation at positions 5, 18, 19, 20
assay endpoint: shrunken log2 fold change

* RRIRSRPPRLPRPRPRPNSIPRP | -0.861
* RRIRPRPPRLPRPRPRPDSYPRP | -0.422
* RRIRRRPPRLPRPRPRPDLQPRP | 0.0255
* RRIRWRPPRLPRPRPRPELHPRP | 0.308
* RRIRMRPPRLPRPRPRPCFSPRP | -0.141
* RRIRGRPPRLPRPRPRPEPWPRP | 0.655
* RRIRPRPPRLPRPRPRPSDIPRP | -0.417
* RRIRNRPPRLPRPRPRPRQFPRP | 0.0733

###

# Tested on: Escherichia coli TOP10
# assay summary: shrunken log2 fold change of peptide-encoding DNA abundance (4.5 h post-induction vs induction); higher = less antimicrobial activity (less host growth inhibition)
# condition notes: time post-induction: 4.5 h; library: site-saturation at positions 5, 18, 19, 20
assay endpoint: shrunken log2 fold change

• RRIRRRPPRLPRPRPRPYQYPRP = -0.0327
• RRIRFRPPRLPRPRPRPYIGPRP = -1.25
• RRIRMRPPRLPRPRPRPPESPRP = 2.5
• RRIRSRPPRLPRPRPRPNWSPRP = -0.249
• RRIRDRPPRLPRPRPRPMHTPRP = 0.0757
• RRIRFRPPRLPRPRPRPPCDPRP = 0.0212
• RRIRMRPPRLPRPRPRPHHVPRP = -0.143
• RRIRMRPPRLPRPRPRPEVWPRP = 1.13
• RRIRWRPPRLPRPRPRPFVIPRP = -0.396
• RRIRGRPPRLPRPRPRPAYIPRP = -0.156
• RRIRNRPPRLPRPRPRPSAWPRP = -0.135
• RRIRKRPPRLPRPRPRPTHCPRP = 0.251
• RRIRGRPPRLPRPRPRPHVDPRP = 0.0583
• RRIRNRPPRLPRPRPRPGNLPRP = -0.186
• RRIRFRPPRLPRPRPRPMTAPRP = -0.00148

###

# System: Escherichia coli TOP10;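 also: peptides expressed intracellularly from a pBAD plasmid library in pooled LB shake-flask culture, induced with 0.3% L-arabinose, DNA abundance read by NGS, three biological replicates, DESeq2 with apeglm shrinkage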
# assay summary: shrunken log2 fold change of peptide-encoding DNA abundance (4.5 h post-induction vs induction); higher = less antimicrobial activity (less host growth inhibition)
# condition notes: time post-induction: 4.5 h; library: site-saturation at positions 5, 18, 19, 20
Label rule, in plain words: shrunken log2 fold change of 0.1 and up is Criterion met, under 0.1 is Criterion not met.

- RRIRPRPPRLPRPRPRPYTIPRP: Criterion not met
- RRIRMRPPRLPRPRPRPFSNPRP: Criterion not met
- RRIRLRPPRLPRPRPRPMSSPRP: Criterion not met
- RRIRHRPPRLPRPRPRPLGVPRP: Criterion not met
- RRIRWRPPRLPRPRPRPFQDPRP: Criterion not met
- RRIRWRPPRLPRPRPRPRLFPRP: Criterion met
- RRIRTRPPRLPRPRPRPRSCPRP: Criterion met
- RRIRVRPPRLPRPRPRPIQHPRP: Criterion not met
- RRIRPRPPRLPRPRPRPFAPPRP: Criterion met
- RRIRRRPPRLPRPRPRPVLRPRP: Criterion met
- RRIRERPPRLPRPRPRPAHTPRP: Criterion not met
- RRIRPRPPRLPRPRPRPRDFPRP: Criterion met
- RRIRIRPPRLPRPRPRPAAPPRP: Criterion met
- RRIRSRPPRLPRPRPRPLTPPRP: Criterion met
- RRIRYRPPRLPRPRPRPIILPRP: Criterion not met
- RRIRWRPPRLPRPRPRPPPLPRP: Criterion met
- RRIRWRPPRLPRPRPRPVVKPRP: Criterion not met
- RRIRIRPPRLPRPRPRPPQCPRP: Criterion not met
- RRIRNRPPRLPRPRPRPACPPRP: Criterion met
- RRIRHRPPRLPRPRPRPYQRPRP: Criterion not met
- RRIRTRPPRLPRPRPRPRLQPRP: Criterion met
- RRIRNRPPRLPRPRPRPHLWPRP: Criterion not met
- RRIRNRPPRLPRPRPRPCGLPRP: Criterion not met
- RRIRVRPPRLPRPRPRPTQPPRP: Criterion not met
- RRIRERPPRLPRPRPRPCKMPRP: Criterion not met
- RRIRMRPPRLPRPRPRPKVYPRP: Criterion not met
- RRIRTRPPRLPRPRPRPCWPPRP: Criterion not met
- RRIRARPPRLPRPRPRPSKCPRP: Criterion not met
- RRIRHRPPRLPRPRPRPVLVPRP: Criterion not met
- RRIRCRPPRLPRPRPRPFVFPRP: Criterion not met
